Data origin: patent EP4725969A1

target: T1, recombinant human HER2 extracellular domain protein (human, UniProt P04626 23-652); experiment: BLI, Protein A capture
T1 construct: range 23-652; Range is printed for the immunogen/panning protein; also called ErbB2; recombinant HER2 protein
METRIC: kon (M⁻¹ s⁻¹)
Response body: numeric value in M⁻¹ s⁻¹, unit text excluded.

>  <BINDER>
2126-Hu-L14 (antibody, IgG1, V domains shown, IgG1/Cκ) VH: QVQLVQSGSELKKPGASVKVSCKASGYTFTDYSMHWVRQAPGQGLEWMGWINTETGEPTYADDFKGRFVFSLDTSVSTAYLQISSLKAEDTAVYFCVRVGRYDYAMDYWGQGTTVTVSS VL: DIQMTQSPSSLSASVGDRVTITCKASQDVYTAVAWYQQKPGKAPKLLINSASYRATGVPSRFSGSGSGTDFTLTISSLQPEDFATYYCQQHYSTPPTFGGGTKVEIK

>  <RECORDED MEASUREMENT>
103000

$$$$

Field: next binder
[Q] // returns reported kon for input 2126-Hu-H42 (antibody, IgG1, V domains shown, IgG1/Cκ) VH: QVQLVQSGSELKKPGASVKVSCKASGYTFTDYSMHWVRQAPGQGLEWMGWINTETGEPTYADDFKGRFVFSLDTSKSTAYLQISSLKAEDTAVYFCVRVGRYDYAMDYWGQGTTVTVSS VL: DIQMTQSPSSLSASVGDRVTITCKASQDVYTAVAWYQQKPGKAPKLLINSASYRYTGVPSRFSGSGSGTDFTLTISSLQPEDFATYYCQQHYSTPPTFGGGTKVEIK
[A] 107000
